readout-name: melting point (°C)
Record the value in °C, omitting the unit from your answer.

A selection of reference data follows.
compound | scale-unit | melting point
Cc1ccc2[nH]c3snc(-c4ccc([N+](=O)[O-])cc4)c3c(=O)c2c1 [Compound 23] | °C | 343
Cc1ccc(-c2nsc3[nH]c4ccc(C)cc4c(=O)c23)cc1 [Compound 19] | °C | 330
Cc1ccc(-c2nsc3[nH]c4ccc(Br)cc4c(=O)c23)cc1 [Compound 24] | °C | 331

For the next question, use this compound.
Q: Consider the compound Cc1ccc2[nH]c3snc(-c4ccc(Br)cc4)c3c(=O)c2c1 [Compound 21] and give its measured melting point.
A: 357

====

tgt: benzodiazepine receptor
assay-info: Displacement of 3H-flumazenil binding in rat cortical tissue (receptor binding)
conditions-used: 3H-Flumazenil binding in vitro, rat cortical membranes; mean of three determinations
readout-name: pKi
On this scale, pKi is minus log10 of a concentration expressed in M (mol/L).

Some compounds with recorded pKi:
record-smiles | endpoint-result
Cc1ccc2[nH]c3snc(-c4ccc(Br)cc4)c3c(=O)c2c1 | 8.28
Cc1ccc(-c2nsc3[nH]c4ccc(C)cc4c(=O)c23)cc1 | 8.72
COc1ccc(-c2nsc3[nH]c4ccc(C)cc4c(=O)c23)cc1 | 8.70
CCCC(=O)Nc1nsc2[nH]c3ccc(C)cc3c(=O)c12 | 8.70
Cc1ccc2[nH]c3onc(-c4ccccc4)c3c(=O)c2c1 | 7.74
Cc1ccc2[nH]c3snc(-c4ccc([N+](=O)[O-])cc4)c3c(=O)c2c1 | 8.26

Now let's try a different one.
Q: Lab request: please report pKi under test system benzodiazepine receptor for `Cc1ccc(-c2nsc3[nH]c4ccc(Br)cc4c(=O)c23)cc1`
A: 8.54

// provenance: patent US8481561B2
